# reported IC50; entries follow
biological target: SOS1/KRAS WT (Homo sapiens (Human)); assay: SOS1/KRAS WT HTRF binding assay (FRET-based protein-protein interaction); conditions: inhibition of His6-SOS1 (aa564-1049, 40 nM) binding to GST-KRAS-WT (aa1-188, 40 nM); at least two independent replicates; read-out: SOS1/KRAS WT HTRF Binding assay pIC50 (converted)
READOUT KIND: IC50 (µM)

>>> measured_result("Cc1c(-c2ccn[nH]2)cccc1[C@@H](C)Nc1nnc(C)c2cc3c(cc12)n(C)c(=O)n3C [Compound 155]")
0.0309
>>> measured_result("Cc1cc([C@@H](C)Nc2nnc(C)c3cc4c(cc23)n(C)c(=O)n4C)c(C)c(C(F)(F)CO)c1 [Compound 212]")
0.0126
>>> measured_result("COC1(C)C(=O)N(C)c2cc3c(N[C@H](C)c4cccc(C(F)(F)C(C)(C)O)c4C)nnc(C)c3cc21 (stereo partly shown) [Compound 102]")
0.00832
>>> measured_result("Cc1nnc(N[C@H](C)c2cccc(C(F)(F)F)c2F)c2cc3c(cc12)n(C)c(=O)n3C [Compound 40]")
0.00891

###

molecular target: SOS1/KRAS WT (Homo sapiens (Human), UniProt Q07889); assay: SOS1/KRAS WT HTRF binding assay (FRET-based protein-protein interaction); conditions: inhibition of His6-SOS1 (aa564-1049, 40 nM) binding to GST-KRAS-WT (aa1-188, 40 nM); at least two independent replicates; read-out: SOS1/KRAS WT HTRF Binding assay pIC50 (converted)
Sequence (Q07889 564-1049): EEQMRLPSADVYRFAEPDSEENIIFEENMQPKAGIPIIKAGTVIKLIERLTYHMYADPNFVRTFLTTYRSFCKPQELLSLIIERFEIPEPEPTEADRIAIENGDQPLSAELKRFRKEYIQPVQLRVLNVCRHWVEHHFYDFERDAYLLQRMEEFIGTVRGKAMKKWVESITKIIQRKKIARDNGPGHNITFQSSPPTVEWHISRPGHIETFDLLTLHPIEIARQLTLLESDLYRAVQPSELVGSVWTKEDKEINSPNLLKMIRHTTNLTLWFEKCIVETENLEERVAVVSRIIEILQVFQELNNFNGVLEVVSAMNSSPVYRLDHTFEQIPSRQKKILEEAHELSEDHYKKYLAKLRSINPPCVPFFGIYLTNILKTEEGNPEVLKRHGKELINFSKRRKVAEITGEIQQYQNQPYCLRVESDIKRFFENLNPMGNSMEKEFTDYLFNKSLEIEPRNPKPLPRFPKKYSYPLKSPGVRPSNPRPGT
READOUT KIND: IC50 (nM)

>>> measured_result("CCC1(OC)C(=O)N(C)c2cc3c(N[C@H](C)c4cccc(C(F)(F)C(C)(C)O)c4C)nnc(C)c3cc21 (stereo partly shown) [Compound 209]")
9.55
>>> measured_result("Cc1c([C@@H](C)Nc2nnc(C)c3cc4c(cc23)n(C(C)(C)C)c(=O)n4C)cccc1C(F)(F)CO [Compound 100]")
10
>>> measured_result("CCn1c(=O)n(C)c2cc3c(C)nnc(N[C@H](C)c4cccc(C(F)(F)F)c4)c3cc21 [Compound 9]")
12
>>> measured_result("Cc1c(C#N)cccc1[C@@H](C)Nc1nnc(C)c2cc3c(cc12)n(C1CC1)c(=O)n3C [Compound 47]")
13.8
>>> measured_result("Cc1nnc(N[C@H](C)c2cccc(C(F)(F)F)c2F)c2cc3c(cc12)n(C)c(=O)n3C(C)C [Compound 38]")
7.59
>>> measured_result("COCC1(C)C(=O)N(C2CC2)c2cc3c(N[C@H](C)c4cccc(C(F)(F)C(C)(C)O)c4C)nnc(C)c3cc21 (stereo partly shown) [Compound 137]")
15.8
>>> measured_result("COC1(C)C(=O)N(C2CC2)c2cc3c(N[C@H](C)c4cccc(C(F)(F)C(C)(C)O)c4F)nnc(C)c3cc21 (stereo partly shown) [Compound 139]")
11

###

biological target: SOS1/KRAS WT (Homo sapiens (Human)); test: SOS1/KRAS WT HTRF binding assay (FRET-based protein-protein interaction); conditions: inhibition of His6-SOS1 (aa564-1049, 40 nM) binding to GST-KRAS-WT (aa1-188, 40 nM); at least two independent replicates; read-out: SOS1/KRAS WT HTRF Binding assay pIC50 (converted)
READOUT KIND: log10 IC50 (log10 of the value in nM)

>>> measured_result("Cc1nnc(N[C@H](C)c2cccc3c(F)cn(C)c23)c2cc3c(cc12)n(C)c(=O)n3C")
2.00
>>> measured_result("Cc1c([C@@H](C)Nc2nnc(C)c3cc4c(cc23)N(C)C(=O)C42CCCC2)cccc1C(F)(F)CO")
0.94
>>> measured_result("COCC1(C)C(=O)N(C)c2cc3c(N[C@H](C)c4cccc(C(F)(F)CO)c4F)nnc(C)c3cc21 (some centres unmarked)")
0.95
>>> measured_result("COC1(C)C(=O)N(C)c2cc3c(N[C@H](C)c4cccc(C(F)(F)CO)c4F)nnc(C)c3cc21 (some centres unmarked)")
0.87
>>> measured_result("COC1(C)C(=O)N(C2CC2)c2cc3c(N[C@H](C)c4cccc(C(F)(F)CO)c4C)nnc(C)c3cc21 (some centres unmarked)")
1.04
>>> measured_result("COCC1(C)C(=O)N(C)c2cc3c(N[C@H](C)c4cccc(C(F)(F)CO)c4)nnc(C)c3cc21 (some centres unmarked)")
1.08
>>> measured_result("Cc1nnc(N[C@H](C)c2cccc(C(F)(F)CO)c2F)c2cc3c(cc12)N(C)C(=O)C3(C)C")
0.91
>>> measured_result("Cc1c(C#N)cccc1[C@@H](C)Nc1nnc(C)c2cc3c(cc12)N(C)C(=O)C3(C)C")
1.13
>>> measured_result("CCC1(OC)C(=O)N(C)c2cc3c(C)nnc(N[C@H](C)c4cccc(C(F)(F)C(C)(C)O)c4)c3cc21 (some centres unmarked)")
1.21
>>> measured_result("COC1(C)C(=O)N(C2CC2)c2cc3c(N[C@H](C)c4cccc(C(F)(F)C(C)(C)O)c4C)nnc(C)c3cc21 (some centres unmarked)")
1.19
>>> measured_result("Cc1c([C@@H](C)Nc2nnc(C)c3cc4c(cc23)n(C)c(=O)n4C)cccc1C(F)(F)CO")
0.96
>>> measured_result("Cc1c(-c2cc(C(F)(F)F)nn2C)cccc1[C@@H](C)Nc1nnc(C)c2cc3c(cc12)n(C)c(=O)n3C")
1.93
>>> measured_result("Cc1nnc(N[C@H](C)c2cccc(C(F)(F)CO)c2)c2cc3c(cc12)n(C)c(=O)n3C(C)(C)C")
0.79
>>> measured_result("COCC1(C)C(=O)N(C)c2cc3c(N[C@H](C)c4cccc(C(F)(F)C(C)(C)O)c4C)nnc(C)c3cc21 (some centres unmarked)")
1.13

###

Biological target: SOS1/KRAS WT (Homo sapiens (Human), UniProt Q07889)
Test: SOS1/KRAS WT HTRF binding assay (FRET-based protein-protein interaction)
Settings: inhibition of His6-SOS1 (aa564-1049, 40 nM) binding to GST-KRAS-WT (aa1-188, 40 nM); at least two independent replicates; read-out: SOS1/KRAS WT HTRF Binding assay pIC50 (converted)
Method: The capacity of compounds to inhibit SOS1 binding to KRAS-WT (wild-type) was quantified using a FRET-based protein-protein interaction assay. […] Binding of SOS1 to KRAS-WT results in an increased fluorescent signal at emission wavelength of 665 nm which can be detected on the EnVision plate reader. […] Following a further 4 hr incubation at room temperature, time-resolved fluorescence was measured on the EnVision plate reader. […]
# reported IC50; entries follow
READOUT KIND: IC50 (nM)

>>> measured_result("CCOC1(C)C(=O)N(C)c2cc3c(N[C@H](C)c4cccc(C(F)(F)CO)c4)nnc(C)c3cc21 (some centres unmarked)")
8.51
>>> measured_result("CCOC1(C)C(=O)N(C2CC2)c2cc3c(N[C@H](C)c4cccc(C(F)(F)CO)c4)nnc(C)c3cc21 (some centres unmarked)")
9.12
>>> measured_result("COCCn1c(=O)n(C)c2cc3c(C)nnc(N[C@H](C)c4cccc(C(F)(F)F)c4F)c3cc21")
10.7
>>> measured_result("Cc1c(C#N)cccc1[C@@H](C)Nc1nnc(C)c2cc3c(cc12)n(C(C)C)c(=O)n3C")
9.77
>>> measured_result("Cc1nnc(N[C@H](C)c2cccc(C(F)(F)F)c2)c2cc3c(cc12)n(C)c(=O)n3C1CC1")
11.5
>>> measured_result("Cc1nnc(N[C@H](C)c2cccc(C(F)(F)CO)c2)c2cc3c(cc12)N(C)C(=O)C3(C)C")
7.41
>>> measured_result("Cc1nnc(N[C@H](C)c2cccc(C(F)(F)C(C)(C)O)c2F)c2cc3c(cc12)n(C)c(=O)n3C")
11.2
>>> measured_result("COCC1(C)C(=O)N(C)c2cc3c(N[C@H](C)c4cccc(C(F)(F)C(C)(C)O)c4F)nnc(C)c3cc21 (some centres unmarked)")
10.2
>>> measured_result("Cc1nnc(N[C@H](C)c2cccc(C(F)(F)CO)c2)c2cc3c(cc12)C1(CCOCC1)C(=O)N3C1CC1")
11
>>> measured_result("CCOC1(C)C(=O)N(C)c2cc3c(C)nnc(N[C@H](C)c4cccc(C(F)(F)C(C)(C)O)c4)c3cc21 (some centres unmarked)")
14.8
>>> measured_result("Cc1nnc(N[C@H](C)c2cccc(C(F)(F)C(C)(C)O)c2F)c2cc3c(cc12)C1(CCCC1)C(=O)N3C")
8.51
>>> measured_result("Cc1nnc(N[C@H](C)c2cccc(C(F)(F)F)c2)c2cc3c(cc12)n(C)c(=O)n3CC(F)F")
13.2
>>> measured_result("Cc1nnc(N[C@H](C)c2cccc(C(F)(F)CO)c2F)c2cc3c(cc12)C1(CCOCC1)C(=O)N3C1CC1")
9.12
>>> measured_result("CCOC1(C)C(=O)N(C)c2cc3c(C)nnc(N[C@H](C)c4cccc(C(F)(F)CO)c4C)c3cc21 (some centres unmarked)")
21.9
